assay_info: physchem
Format: physicochemical
condition_label: pH 5.98, aqueous buffer, thermodynamic from solid, 50 mM Citrate; RT/Ambient RH; pH 5.98; read-out: CPMM Amount (maximum solubility)
Protocol: A study was conducted to evaluate whether buffer concentration affects the maximum solubility of CPMM. […] The solutions were prepared and CPMM was added until saturation was achieved. […] Saturation was determined to have been achieved after the pH had stabilized and undissolved remained in the vial after overnight shaking. Solubility was evaluated by taking two separate samplings over the course of two days to verify that saturation had been achieved. […]

{"compound_string": "COC(=O)C1(OC(=O)c2cncn2[C@H](C)c2ccccc2)CC1", "readout_unit": "µg/mL", "solubility": 230}

---

assay_info: physchem
Type: physicochemical
condition_label: pH 6, aqueous buffer, thermodynamic from solid, 25 mM Citrate; RT/Ambient RH; pH 6.00; read-out: CPMM Amount (maximum solubility)

{"molecule": "COC(=O)C1(OC(=O)c2cncn2[C@H](C)c2ccccc2)CC1 [CPMM]", "readout_unit": "µg/mL", "solubility": 280}

---

assay_info: physchem
Type: physicochemical
condition_label: aqueous buffer, thermodynamic from solid; 50 mM buffer pH 8 (phosphoric acid), actual pH 7.48; read-out: Actual [CPMM] Concentration (maximum solubility)
Description: CPMM was evaluated for maximum solubility in aqueous pH 1-9 buffer solutions. CPMM was weighted into 1.0 mL of each solution, vortex mixed to solubilize, and placed on a shaker table until saturated. Additional CPMM was added and replaced on the shaker table until a saturated solution was obtained. […] Saturated solutions were centrifuged and the supernatants were analyzed by HPLC.

{"compound_string": "COC(=O)C1(OC(=O)c2cncn2[C@H](C)c2ccccc2)CC1", "solubility": "0.26 mg/mL"}

---

assay_info: physchem
Assay type: physicochemical
condition_label: aqueous buffer, thermodynamic from solid; 50 mM buffer pH 3 (phosphoric acid), actual pH 2.62; read-out: Actual [CPMM] Concentration (maximum solubility)

{"compound": "COC(=O)C1(OC(=O)c2cncn2[C@H](C)c2ccccc2)CC1 [CPMM]", "readout_unit": "µg/mL", "solubility": 3150}

---

assay_info: physchem
Type: physicochemical
condition_label: 2 °C, pH 6.05, aqueous with cosolvent or surfactant or cyclodextrin, thermodynamic from solid, 10% SBECD in 10 mM Citrate; 2-8° C./ambient RH; pH 6.05; read-out: CPMM Amount (maximum solubility)
reported_property: solubility (µg/mL)

{"compound": "COC(=O)C1(OC(=O)c2cncn2[C@H](C)c2ccccc2)CC1 [CPMM]", "reported_property": "solubility", "readout_unit": "µg/mL", "reported": 5480}

---

assay_info: physchem
Format: physicochemical
condition_label: aqueous buffer, thermodynamic from solid; 50 mM buffer pH 2 (phosphoric acid), actual pH 1.43; read-out: Actual [CPMM] Concentration (maximum solubility)

{"compound": "COC(=O)C1(OC(=O)c2cncn2[C@H](C)c2ccccc2)CC1 [CPMM]", "solubility [mg/mL]": 49.4}

---

assay_info: physchem
Format: physicochemical
condition_label: pH 6, aqueous buffer, thermodynamic from solid, citrate solutions containing no SBECD; read-out: solubility
reported_property: solubility

{"compound_string": "COC(=O)C1(OC(=O)c2cncn2[C@H](C)c2ccccc2)CC1", "reported": "~300 µg/mL"}
